B1: TPR t1 (parent)
chain: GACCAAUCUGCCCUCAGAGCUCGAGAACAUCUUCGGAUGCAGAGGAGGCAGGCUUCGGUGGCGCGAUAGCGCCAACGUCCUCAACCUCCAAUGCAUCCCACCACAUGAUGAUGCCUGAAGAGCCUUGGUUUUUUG

Variants of: B1
Assay: polymerase ribozyme fitness, log enrichment relative to wild type (log ratio); higher = more active; in vitro selection for triplet polymerase activity
QUANTITY NAME: polymerase ribozyme fitness (log ratio)
// return a plain number; no unit text

So for U9G C12A U14G G63U C99A G120C , the logged polymerase ribozyme fitness (log ratio) turned out to be -6.39

So for A90U U125G , the logged polymerase ribozyme fitness (log ratio) turned out to be -1.11

So for C89U C99G A100C C123G , the logged polymerase ribozyme fitness (log ratio) turned out to be -7.05

So for C62A A118C , the logged polymerase ribozyme fitness (log ratio) turned out to be -2.96

So for A24G U81A , the logged polymerase ribozyme fitness (log ratio) turned out to be -2.64

So for C8A G39U C64U A111U U116G U129G , the logged polymerase ribozyme fitness (log ratio) turned out to be -5.99

So for C31U C40U G45A , the logged polymerase ribozyme fitness (log ratio) turned out to be -6.8

So for C56G G113C , the logged polymerase ribozyme fitness (log ratio) turned out to be -1.92

So for C56U U59G A74G C102A G127U , the logged polymerase ribozyme fitness (log ratio) turned out to be -3.57

So for G45U G60U , the logged polymerase ribozyme fitness (log ratio) turned out to be -0.287

So for G77U A100C A118U U129C , the logged polymerase ribozyme fitness (log ratio) turned out to be -1.45

So for C8U C99U , the logged polymerase ribozyme fitness (log ratio) turned out to be -2.32
